Test system: human lung epithelium (NL20)
ASSAY_CONTEXT: read-out: Healthy (IC50, μM) NL20; 48 hours treatment, MTT
READOUT_TYPE: IC50 (µM)

{"SUBSTANCE": "H-KRWHWWRRHWVVW-NH2 [MAD1]", "READOUT_TYPE": "IC50", "READOUT_UNIT": "µM", "MEASURED_VALUE": 76.9}

---

Test system: panel of human cancer cell lines (A549, OVCAR-3, NCI/ADR-RES, T24)

{"SUBSTANCE": "H-LWKRWVGVWRKWL-NH2 [DAP1]", "TESTED_ON": "panel of human cancer cell lines (A549, OVCAR-3, NCI/ADR-RES, T24)", "IC50": "8.6 to 15.3 µM"}

---

System: human lung epithelium (NL20)
ASSAY_CONTEXT: 48 h
Below, each of the substances is paired with its reported IC50 value.

{"SUBSTANCE": "H-RWGKWFKKNSHLS-NH2 [DAP2]", "TESTED_ON": "human lung epithelium (NL20)", "IC50": "> 100 µM"}
{"SUBSTANCE": "H-LWKRWVGVWRKWL-NH2 [DAP1]", "TESTED_ON": "human lung epithelium (NL20)", "IC50": "19 µM"}
